ASSAY TARGET: human Norepinephrine Transporter (NET), SLC6A2 (gene 6530)
ASSAY DETAILS: NVS_TR_hNET: NovaScreen (NVS) Transporter Assay for human Norepinephrine Transporter (NET) (AID 2283377);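 note: cell-free membrane protein extracted from CHO cells expressing human NET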
Results filed as inconclusive are left out. Active and inactive are the calls of the source. Rule for the calls: active = hit-call score of the fitted dose curve at least 0.9, where 1 is the maximum; inconclusive = response in the unintended direction; inactive = score below 0.9.
The reply should name one outcome from active, inactive

[[record]]
compound = "CCCCCCCCCCCCN(C)C"
class_assignment = "inactive"

[[record]]
compound = "CCOC(=O)C(SP(=S)(OC)OC)c1ccccc1 (centres undefined)"
class_assignment = "active"

[[record]]
compound = "O=[N+]([O-])c1ccc(Nc2ccccc2)cc1"
class_assignment = "active"


Kindly review the next compound as well.
Q: // outcome(item) with item = Cc1ccc(OP(=O)(Oc2ccc(C)cc2C)Oc2ccc(C)cc2C)c(C)c1
A: active
